target_under_test: p70S6K human enzyme (Homo sapiens, UniProt P23443, T412E)
Sequence (P23443 whole entry T412E): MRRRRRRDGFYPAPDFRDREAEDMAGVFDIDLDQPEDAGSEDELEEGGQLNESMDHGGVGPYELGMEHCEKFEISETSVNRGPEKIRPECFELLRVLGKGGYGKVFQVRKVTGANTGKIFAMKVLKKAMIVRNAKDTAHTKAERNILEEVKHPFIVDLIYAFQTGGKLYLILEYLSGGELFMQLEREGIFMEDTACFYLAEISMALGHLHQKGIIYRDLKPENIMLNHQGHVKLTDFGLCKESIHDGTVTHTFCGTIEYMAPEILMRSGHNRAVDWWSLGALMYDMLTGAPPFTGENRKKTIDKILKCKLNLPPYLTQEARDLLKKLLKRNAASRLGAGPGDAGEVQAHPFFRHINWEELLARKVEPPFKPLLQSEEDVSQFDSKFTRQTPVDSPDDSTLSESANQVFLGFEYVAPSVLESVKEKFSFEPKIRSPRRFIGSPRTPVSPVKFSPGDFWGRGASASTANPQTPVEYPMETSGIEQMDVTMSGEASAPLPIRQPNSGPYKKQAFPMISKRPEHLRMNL
assay_text: p70S6K inhibition assay (IMAP FP)
Assay type: biochemical
reported_conditions: average; read-out: p70S6K Ki
parameter_measured: pKi
Please keep in mind that pKi is minus log10 of the molar concentration; only the number is needed.

Using the record for Cc1ccc(CN2CC[C@@H](Nc3cccc4cnccc34)C2)cc1OCCO , report its pKi.
6.75

###

assay_text: Rat oral pharmacokinetics (plasma)
Format: in vivo
reported_conditions: rat oral PK, mean of n = 3 rats

| compound | Vz_F |
| --- | --- |
| CSc1ccc(CN2CC[C@@H](Nc3cccc4cnccc34)C2)cc1 [Compound 2.026] | BLQ |
| CCc1ccc(CN2CCC[C@@H](Nc3ccc4[nH]ncc4c3)C2)cc1 [Compound 1.136] | BLQ |
| CS(=O)(=O)Nc1cccc(CN2CCC[C@H](Nc3ccc4[nH]ncc4c3)C2)c1 [Compound 1.091] | BLQ |
